Study the reported pIC50 values for UniProtKB P49841 given below; they originate from different publications.
Sequence (P49841 whole entry): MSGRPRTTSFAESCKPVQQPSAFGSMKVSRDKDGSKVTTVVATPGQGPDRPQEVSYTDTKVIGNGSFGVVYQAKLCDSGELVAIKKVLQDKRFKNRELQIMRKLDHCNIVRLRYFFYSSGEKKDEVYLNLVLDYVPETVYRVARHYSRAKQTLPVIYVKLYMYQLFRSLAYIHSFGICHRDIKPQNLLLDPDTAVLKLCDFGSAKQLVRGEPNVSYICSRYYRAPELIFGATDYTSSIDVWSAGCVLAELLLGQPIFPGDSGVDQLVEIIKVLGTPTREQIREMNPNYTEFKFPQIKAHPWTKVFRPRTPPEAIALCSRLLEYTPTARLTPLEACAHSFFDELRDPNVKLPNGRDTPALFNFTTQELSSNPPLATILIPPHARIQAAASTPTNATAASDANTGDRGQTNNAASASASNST
pIC50: −log10 of the molar value.

Would you kindly share the measured pIC50 for `O=c1oc2cccnc2n1Cc1cn(-c2ccccc2Br)nn1` ? 6.51

Next: `Cn1c(SCc2cn(-c3cccc([N+](=O)[O-])c3)nn2)nc(-c2ccccc2)cc1=O` 6.82

Next: CC[C@@]1(c2cccc(-c3cnn(C4CC4(F)F)c3)c2)C2=CN=NC2NC2=C1C(=O)NC(C)(C)C2 (some centres undefined) 6.00 to 7.00

Next: CC[C@]1(c2ccccc2)C2=CN=NC2NC2=C1C(=O)C[C@]1(CCOC1)C2 (some centres undefined) 5.30 to 6.00

Next: CCCn1nccc1-c1cccc([C@]2(CC)C3=CN=NC3NC3=C2C(=O)CC(C)(C)C3)c1 (some centres undefined) 6.00 to 7.00

Next: `COc1cccc(S(=O)(=O)N2CCC3(CC2)C2=C(N=NC2)NC2=C3C(=O)CC(C)(C)C2)c1` 6.00 to 7.00

Next: `CC1(C)CC(=O)C2=C(C1)NC1=C(CN=N1)C21CCN(S(=O)(=O)c2cnn3ccccc23)CC1` > 7.00

Next: `CC1(C)CC(=O)C2=C(C1)NC1=C(CN=N1)C21CCN(S(=O)(=O)c2cc(F)ccn2)CC1` 6.00 to 7.00

Next: `CC1(C)CC(=O)C2=C(C1)NC1=C(CN=N1)C21CCN(S(=O)(=O)c2ccccc2C#N)CC1` > 7.00

Next: `CC1(C)CC(=O)C2=C(C1)NC1=C(CN=N1)[C@@]21COC2(CN(C(=O)c3ccccc3)C2)C1` > 7.00

Next: CCC1(c2cccc(-c3ccnc(C)c3)c2)C2=CN=NC2NC2=C1C(=O)CC(C)(C)C2 (centres undefined) 6.00 to 7.00

Next: `CC(C)n1cc(C2=C(c3coc4ncccc34)C(=O)NC2=O)c2ccccc21` 6.72

Next: CCC1(c2cccc(-c3ccnc4c3CCCC4)c2)C2=C(N=NC2)NC2=C1C(=O)C(C)(C)C2 (centres undefined) 6.00 to 7.00

Next: CC[C@]1(c2cccc(-c3cc(C)nc(C)c3)c2)C2=CN=NC2NC2=C1C(=O)CC(C)(C)C2 (some centres undefined) 6.00 to 7.00
